Provide the reported EC50 of hC3 cleavage of each item.
Molecular target: plasma purified human complement protein C3 (human) (UniProt P01024)
Sequence (P01024 23-667, chain 1 of 2): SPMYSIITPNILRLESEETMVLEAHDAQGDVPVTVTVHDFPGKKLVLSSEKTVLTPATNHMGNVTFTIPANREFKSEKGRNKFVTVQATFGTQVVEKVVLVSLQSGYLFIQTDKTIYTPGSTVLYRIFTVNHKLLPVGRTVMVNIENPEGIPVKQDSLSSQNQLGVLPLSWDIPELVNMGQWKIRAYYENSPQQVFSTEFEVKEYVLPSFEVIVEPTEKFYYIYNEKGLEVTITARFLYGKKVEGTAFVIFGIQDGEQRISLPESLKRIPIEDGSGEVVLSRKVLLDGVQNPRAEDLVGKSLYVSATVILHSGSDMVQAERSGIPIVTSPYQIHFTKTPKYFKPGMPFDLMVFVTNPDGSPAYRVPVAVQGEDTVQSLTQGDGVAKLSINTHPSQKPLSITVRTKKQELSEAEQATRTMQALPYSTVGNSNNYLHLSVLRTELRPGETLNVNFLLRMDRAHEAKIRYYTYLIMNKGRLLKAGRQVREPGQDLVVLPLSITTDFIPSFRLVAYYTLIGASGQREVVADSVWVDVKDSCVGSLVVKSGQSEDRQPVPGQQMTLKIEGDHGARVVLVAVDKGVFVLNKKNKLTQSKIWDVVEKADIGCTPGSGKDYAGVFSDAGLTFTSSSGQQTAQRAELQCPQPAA
Sequence (P01024 672-1663, chain 2 of 2): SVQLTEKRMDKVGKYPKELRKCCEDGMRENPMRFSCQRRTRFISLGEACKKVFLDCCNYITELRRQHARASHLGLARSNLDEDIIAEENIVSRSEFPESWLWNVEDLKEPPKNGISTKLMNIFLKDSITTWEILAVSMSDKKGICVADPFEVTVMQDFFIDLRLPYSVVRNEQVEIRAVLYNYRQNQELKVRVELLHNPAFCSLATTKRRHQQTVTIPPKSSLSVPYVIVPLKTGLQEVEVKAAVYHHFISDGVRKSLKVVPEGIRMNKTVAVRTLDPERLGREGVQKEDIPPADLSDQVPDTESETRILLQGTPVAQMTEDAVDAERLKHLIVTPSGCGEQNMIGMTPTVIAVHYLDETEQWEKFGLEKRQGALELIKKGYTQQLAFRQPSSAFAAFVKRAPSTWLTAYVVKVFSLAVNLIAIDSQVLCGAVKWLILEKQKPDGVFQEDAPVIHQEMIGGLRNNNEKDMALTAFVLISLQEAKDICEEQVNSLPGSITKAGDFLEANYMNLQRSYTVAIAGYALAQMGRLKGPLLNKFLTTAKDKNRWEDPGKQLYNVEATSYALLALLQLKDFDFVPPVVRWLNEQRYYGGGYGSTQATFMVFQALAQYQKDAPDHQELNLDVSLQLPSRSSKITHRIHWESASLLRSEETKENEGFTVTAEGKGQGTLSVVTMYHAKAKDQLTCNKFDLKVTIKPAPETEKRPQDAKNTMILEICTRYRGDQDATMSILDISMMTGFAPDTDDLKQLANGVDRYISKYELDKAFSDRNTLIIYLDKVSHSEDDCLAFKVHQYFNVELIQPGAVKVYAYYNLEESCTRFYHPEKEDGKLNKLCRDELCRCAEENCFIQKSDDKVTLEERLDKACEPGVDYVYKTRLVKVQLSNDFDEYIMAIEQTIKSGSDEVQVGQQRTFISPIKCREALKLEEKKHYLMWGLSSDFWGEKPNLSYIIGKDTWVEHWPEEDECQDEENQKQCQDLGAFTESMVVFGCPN
Test: cell-based or functional assay
Note: state the figure and append the unit.

For the 4 binders below, give their EC50 of hC3 cleavage values.
1. MTSP-1 Q38G/H40R/I41H/D60bN/F60eT/F97D/F99L/C122S/Q175L/Q192G (enzyme) VVGGTDADEGEWPWQVSLHALGGGRHCGASLISPNWLVSAAHCYIDNRGTRYSDPTQWTAFLGLHDQSQRSAPGVQERRLKRIISHPFFNDDTLDYDIALLELEKPAEYSSMVRPISLPDASHVFPAGKAIWVTGWGHTQYGGTGALILQKGEIRVINQTTCENLLPQLITPRMMCVGFLSGGVDSCGGDSGGPLSSVEADGRIFQAGVVSWGDGCAQRNKPGVYTRLPLFRDWIKENTGV
2. MTSP-1 Q38H/I41S/D60bT/F60eS/Y60gW/F97D/ins97aV/T98P/F99L/C122S/G151H/Q175A/Q192D (enzyme) VVGGTDADEGEWPWQVSLHALGHGHSCGASLISPNWLVSAAHCYIDTRGSRWSDPTQWTAFLGLHDQSQRSAPGVQERRLKRIISHPFFNDDVPLDYDIALLELEKPAEYSSMVRPISLPDASHVFPAGKAIWVTGWGHTQYGGTHALILQKGEIRVINQTTCENLLPQAITPRMMCVGFLSGGVDSCDGDSGGPLSSVEADGRIFQAGVVSWGDGCAQRNKPGVYTRLPLFRDWIKENTGV
3. MTSP-1 Q38E/I41V/D60bF/F60eK/Y60gF/F97T/ins97aE/T98G/F99L/C122S/Q175L/Q192G (enzyme) VVGGTDADEGEWPWQVSLHALGEGHVCGASLISPNWLVSAAHCYIDFRGKRFSDPTQWTAFLGLHDQSQRSAPGVQERRLKRIISHPFFNDTEGLDYDIALLELEKPAEYSSMVRPISLPDASHVFPAGKAIWVTGWGHTQYGGTGALILQKGEIRVINQTTCENLLPQLITPRMMCVGFLSGGVDSCGGDSGGPLSSVEADGRIFQAGVVSWGDGCAQRNKPGVYTRLPLFRDWIKENTGV
4. MTSP-1 F97Q/ins97aT/T98M/C122S/Q192E/D217R/K224L (enzyme) VVGGTDADEGEWPWQVSLHALGQGHICGASLISPNWLVSAAHCYIDDRGFRYSDPTQWTAFLGLHDQSQRSAPGVQERRLKRIISHPFFNDQTMFDYDIALLELEKPAEYSSMVRPISLPDASHVFPAGKAIWVTGWGHTQYGGTGALILQKGEIRVINQTTCENLLPQQITPRMMCVGFLSGGVDSCEGDSGGPLSSVEADGRIFQAGVVSWGRGCAQRNLPGVYTRLPLFRDWIKENTGV

Output:
1: 11.9 nM; 2: 22.6 nM; 3: 14.2 nM; 4: 2450 nM

EC50 of hC3 cleavage recorded for this binder, MTSP-1 I41S/D60bH/ins97aV/F97D/T98P/F99L/C122S/I136V/Q192G/D217N (enzyme) VVGGTDADEGEWPWQVSLHALGQGHSCGASLISPNWLVSAAHCYIDHRGFRYSDPTQWTAFLGLHDQSQRSAPGVQERRLKRIISHPFFNDDVPLDYDIALLELEKPAEYSSMVRPISLPDASHVFPAGKAVWVTGWGHTQYGGTGALILQKGEIRVINQTTCENLLPQQITPRMMCVGFLSGGVDSCGGDSGGPLSSVEADGRIFQAGVVSWGNGCAQRNKPGVYTRLPLFRDWIKENTGV , is 20.6 nM
